System: phenylquinone induced writhing
Test: phenyl-p-quinone writhing assay in mice (analgesia)
Format: in vivo
Settings: Mus musculus, sc, dose for approximately 50% inhibition of writhing
Structures can show the parent of a compound that is named as a salt.
Experimental endpoint: log10(ED50) (log10 of the value in mg/kg)
# values: log10(ED50), units mg/kg

molecule=CN1CCN(C2=Nc3cc(Cl)ccc3N3CCc4cccc2c43)CC1 experimental_endpoint=log10(ED50) measurement=0.61
molecule=CN1CCN(C2=Nc3cc(Br)ccc3-n3ccc4cccc2c43)CC1 experimental_endpoint=log10(ED50) measurement=-0.14
molecule="CN(C)CCN(C)C1=Nc2cc(Br)ccc2N2CCc3cccc1c32 [Dimaleate salt]" experimental_endpoint=log10(ED50) measurement=0.91
molecule=Cc1ccc2c(c1)N=C(N1CCN(C)CC1)c1cccc3c1N2CC3 experimental_endpoint=log10(ED50) measurement=-0.47

Please examine the following record next.
Find the recorded log10(ED50) belonging to CCC(=O)O[C@](Cc1ccccc1)(c1ccccc1)[C@H](C)CN(C)C [propoxyphene, reference compound] and report it.
0.59
